All values here come from paper PMC9042253.

Entries with reported IC50 on CD38 cyclase (Homo sapiens)
Sequence (P28907 whole entry): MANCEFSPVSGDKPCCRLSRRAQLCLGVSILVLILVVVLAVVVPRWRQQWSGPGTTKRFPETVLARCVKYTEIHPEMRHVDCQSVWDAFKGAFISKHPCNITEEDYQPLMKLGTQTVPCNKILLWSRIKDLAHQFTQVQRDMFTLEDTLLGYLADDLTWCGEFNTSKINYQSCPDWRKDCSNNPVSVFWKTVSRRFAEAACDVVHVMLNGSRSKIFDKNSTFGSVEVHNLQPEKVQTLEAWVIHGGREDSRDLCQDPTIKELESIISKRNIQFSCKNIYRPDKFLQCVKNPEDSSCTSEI

{"compound": "COc1ccc2cc(/C=C3\\SC(=S)NC3=O)ccc2c1 [Compound 36]", "value units": "µM", "bound operator": ">", "IC50": 100}
{"compound": "O=C1NC(=S)S/C1=C\\c1ccc(-c2ccc(C(F)(F)F)cc2)cc1 [Compound 32]", "value units": "µM", "bound operator": "=", "IC50": 3.15}
{"compound": "CS(=O)(=O)c1ccc(/C=C2\\SC(=S)NC2=O)cc1 [Compound 21]", "value units": "µM", "bound operator": "=", "IC50": 11.5}
{"compound": "O=C1NC(=S)S/C1=C\\c1ccc(-c2ccccn2)cc1 [Compound 34]", "value units": "µM", "bound operator": "=", "IC50": 56}
{"compound": "COc1ccc(-c2ccc(/C=C3\\SC(=S)N(C)C3=O)cc2)cc1 [Compound 24]", "value units": "µM", "bound operator": ">", "IC50": 100}
{"compound": "O=C1NC(=S)S/C1=C\\c1ccc2oc3ccccc3c2c1 [Compound 26]", "value units": "µM", "bound operator": ">", "IC50": 100}
{"compound": "O=C1NC(=S)S/C1=C\\c1ccc(C(F)(F)F)cc1 [Compound 23]", "value units": "µM", "bound operator": "=", "IC50": 4.65}
{"compound": "COc1cc(/C=C2\\SC(=S)NC2=O)cc(OC)c1OC [Compound 39]", "value units": "µM", "bound operator": "=", "IC50": 68.6}
{"compound": "O=C1NC(=S)S/C1=C\\c1ccc(Oc2ccccc2)cc1 [Compound 27]", "value units": "µM", "bound operator": ">", "IC50": 100}
{"compound": "Cc1ccc(-c2ccc(/C=C3\\SC(=S)NC3=O)cc2)cc1 [Compound 33]", "value units": "µM", "bound operator": "=", "IC50": 10}
